Data origin, for the record: ChEMBL document CHEMBL1201862

System: CCRF-CEM
Assay info: NCI tumour cell line growth inhibition, 48 h
Calls of active or inactive are those of the source. Cut-off read from the data, not from the text of the source: active = GI50 up to about 1.1 µM and inactive = higher.
# Lookup of reported GI50 keyed by entry

{"Compound": "CC(=O)C(C(=O)c1ccc(C)cc1)[C@@H]1OC(C)(C)O[C@@H]1[C@H]1COC(C)(C)O1 (some centres undefined)", "GI50": "1.27 µM (inactive)"}
{"Compound": "C[C@H]1C(=O)CC[C@]2(C)CCC(C(C)(C)O)CC12O (some centres undefined)", "GI50": "> 100 µM (inactive)"}
{"Compound": "COc1cc(OC)c(/C=N\\Nc2nc3ccccc3c(=O)n2-c2ccccc2)c(OC)c1", "GI50": "14.2 µM (inactive)"}
{"Compound": "CN1CCN(C2CC(=O)c3c(Cl)sc(Cl)c32)CC1 (centres undefined)", "GI50": "3.45 µM (inactive)"}
{"Compound": "[N-]=[N+]=C(C(=O)OCC#CCOC(=O)C(=[N+]=[N-])S(=O)(=O)c1ccccc1)S(=O)(=O)c1ccccc1", "GI50": "> 10 µM (inactive)"}
{"Compound": "COc1ncnc2c1cnn2Cc1cn(CCCCO)nn1", "GI50": "> 100 µM (inactive)"}
{"Compound": "Cc1cc(C)nc(NS(=O)(=O)c2ccc(NC(=O)c3cccn4c(=O)c5ccccc5nc34)cc2)n1", "GI50": "27.5 µM (inactive)"}
{"Compound": "C=CC1(CC[C@]2(c3ccc(OC)c(OC)c3)C=[N+]([O-])O[C@H](O[C@@H]3CCCC[C@H]3C(C)(C)c3ccccc3)C2)OCC(C)(C)CO1", "GI50": "4.18 µM (inactive)"}
{"Compound": "CCOC1=C2N=C(C(CC)c3ccc(F)cc3)N=C2C(=O)c2ccccc21 (centres undefined)", "GI50": "40 µM (inactive)"}

----------
# Lookup of reported GI50 keyed by entry
System: RPMI-8226
Assay info: NCI tumour cell line growth inhibition, 48 h
Calls of active or inactive are those of the source. Cut-off read from the data, not from the text of the source: active = GI50 up to about 1.1 µM and inactive = higher.

{"Compound": "CC(=O)O[C@H]1CCC2[C@@H]3CCC4Cc5nc6c(nc5C[C@]4(C)C3CC[C@@]21C)CC1CC[C@@H]2C(CC[C@@]3(C)C2CC[C@@H]3C(C)CCCC(C)C)[C@@]1(C)C6 (stereo partly drawn)", "GI50": "> 100 µM (inactive)"}
{"Compound": "NC(=O)c1csc(-c2ccc(CO)o2)n1", "GI50": "> 100 µM (inactive)"}
{"Compound": "Cn1c(=O)c2c3ccccc3n(C)c2n(C)c1=O", "GI50": "> 100 µM (inactive)"}
{"Compound": "COc1cc(C2SC(=N)Nc3c2c(C)nn3C(=O)c2ccc(Cl)cc2)ccc1O (stereo not drawn)", "GI50": "> 10 µM (inactive)"}
{"Compound": "COc1ccc2o/c(=N/c3ccccc3)c(C(N)=O)cc2c1", "GI50": "> 100 µM (inactive)"}
{"Compound": "O=C(CCC(=O)CC(O)(C(F)(F)F)C(F)(F)F)CC(O)(C(F)(F)F)C(F)(F)F", "GI50": "26.7 µM (inactive)"}
{"Compound": "C=CC1(CC[C@]2(c3ccc(OC)c(OC)c3)C=[N+]([O-])O[C@H](O[C@@H]3CCCC[C@H]3C(C)(C)c3ccccc3)C2)OCC(C)(C)CO1", "GI50": "2.34 µM (inactive)"}
{"Compound": "Cc1cc(OCC(=O)O)c(Cl)cc1Cl", "GI50": "81.3 µM (inactive)"}

----------
Test system: NCI-H522
Assay info: NCI tumour cell line growth inhibition, 48 h
Activity calls are given as the source filed them. Rule as the data show it: active = GI50 up to about 1.1 µM and inactive = higher.

{"Compound": "CC1=NN(C(=O)CC(=O)Nc2ccccc2)C(=O)C1/N=N/c1ccc(C(=O)O)cc1 (stereo not given)", "System under test": "NCI-H522", "GI50": "> 100 µM (inactive)"}
{"Compound": "CC1Cc2cc(O)c(O)cc2-c2cc(O)c(O)cc2CC1C (stereo not given)", "System under test": "NCI-H522", "GI50": "9.57 µM (inactive)"}
{"Compound": "[N-]=[N+]=C(C(=O)OCC#CCOC(=O)C(=[N+]=[N-])S(=O)(=O)c1ccccc1)S(=O)(=O)c1ccccc1", "System under test": "NCI-H522", "GI50": "> 10 µM (inactive)"}
{"Compound": "O=C(O)/C=C/C(=O)Nc1cccc2c1-c1ccccc1C2=O", "System under test": "NCI-H522", "GI50": "3.25 µM (inactive)"}
{"Compound": "CC1=NN=C(N)N/C1=C\\C(Sc1ccc(Cl)cc1)c1ccc(Cl)cc1Cl (stereo not given)", "System under test": "NCI-H522", "GI50": "3.79 µM (inactive)"}
{"Compound": "CC(=O)OCC1OC(n2c3c(cc(C#N)c2=O)CCCCCC3)C(OC(C)=O)C(OC(C)=O)C1OC(C)=O (stereo not given)", "System under test": "NCI-H522", "GI50": "> 100 µM (inactive)"}
{"Compound": "OCC(O)C1OC2CC1Nc1ccccc1N2 (stereo not given)", "System under test": "NCI-H522", "GI50": "> 100 µM (inactive)"}
{"Compound": "Cc1ccc(N2CCN(CCC(=O)O)CC2)cc1", "System under test": "NCI-H522", "GI50": "> 100 µM (inactive)"}
{"Compound": "CCCCNc1nc(NC2OCC(OC(C)=O)C(OC(C)=O)C2OC(C)=O)c(N=O)c(=O)n1C (stereo not given)", "System under test": "NCI-H522", "GI50": "> 10 µM (inactive)"}
{"Compound": "Cc1cc2ccccc2oc(=O)/c1=N\\Nc1ccccc1", "System under test": "NCI-H522", "GI50": "65.5 µM (inactive)"}

----------
# Lookup of reported GI50 keyed by entry
System: NCI-H460
Assay info: NCI tumour cell line growth inhibition, 48 h
Activity calls are given as the source filed them. Cut-off read from the data, not from the text of the source: active = GI50 up to about 1.1 µM and inactive = higher.

{"Molecule": "C1=C[C@]2(CCC13OCCO3)COc1ccccc12", "GI50": "31.7 µM (inactive)"}
{"Molecule": "CC(=O)OC1CC[C@@]2(C)C(CC[C@]3(C)C2CC=C2[C@@H]4C(C)[C@H](C)CCC4(C)CCC23C)[C@@]1(C)C(=O)O (stereo not given in full)", "GI50": "23.5 µM (inactive)"}
{"Molecule": "O=C(O)c1ccn(-c2cccc(-n3ccc(C(=O)O)n3)n2)n1", "GI50": "> 100 µM (inactive)"}
{"Molecule": "CC1(C)C(=O)C2(OS(=O)(=O)C(F)(F)F)CCC1C2 (stereo not given)", "GI50": "> 100 µM (inactive)"}
{"Molecule": "CC(C)(C)c1cc(OCc2nnc3sc(S)nn23)c(Cl)cc1OCc1nnc2sc(S)nn12", "GI50": "29 µM (inactive)"}
{"Molecule": "Cc1ccc(C(=O)N2CCN(C(=O)c3ccc(C)cc3)c3ccccc32)cc1", "GI50": "4.14 µM (inactive)"}
{"Molecule": "CCCCN(CCCC)C(=Nc1ccccc1)N(CCCC)CCCC", "GI50": "3.34 µM (inactive)"}
{"Molecule": "c1cc2c(c(-c3c4ccccc4nc4ccccc34)c1)CC1(CC2)OCCO1", "GI50": "> 100 µM (inactive)"}
{"Molecule": "CN(C(=O)C12C3C4C5C3C1(C(=O)C13C6C7C8C6C1C8C73)C5C42)C(C)(C)C (stereo not given)", "GI50": "> 32.7 µM (inactive)"}
{"Molecule": "COc1ccc(C2=NC(CO)[C@H](c3ccccc3)O2)cc1OC (stereo not given in full)", "GI50": "> 100 µM (inactive)"}

----------
# Lookup of reported GI50 keyed by entry
Tested on: NCI-H23
Assay info: NCI tumour cell line growth inhibition, 48 h
Calls of active or inactive are those of the source. No stated cut-off is given here; in the data, active = GI50 up to about 1.1 µM and inactive = higher. Non-standard residues stand in square brackets, D forms with d. Residues, ends and D or L forms follow the SMILES beside them. ξ: configuration not given here. ξLac(3-iPr) = CC(C)CC(O)C(=O)O; NMeV = CN[CH](C(=O)O)C(C)C; NMeA = CN[CH](C)C(=O)O; βAla = NCCC(=O)O

{"Compound": "C(=N\\NC1=NCCN1)/c1cccc2cc3ccncc3nc12", "System under test": "NCI-H23", "GI50": "11.5 µM (inactive)"}
{"Compound": "COC(CO[Si](C)(C)N[Si](C)(C)OCC(OC)c1ccccc1)c1ccccc1 (stereo not drawn)", "System under test": "NCI-H23", "GI50": "> 100 µM (inactive)"}
{"Compound": "COC(=O)CC1C(=O)OCc2c1cc1n(c2=O)Cc2c-1nc1ccccc1c2OC (stereo not drawn)", "System under test": "NCI-H23", "GI50": "17.3 µM (inactive)"}
{"Compound": "CC(=O)OCCC(O[Si](c1ccccc1)(c1ccccc1)C(C)(C)C)C(C)(C)O (stereo not drawn)", "System under test": "NCI-H23", "GI50": "24.7 µM (inactive)"}
{"Compound": "Nc1n/c(=N\\c2ccccc2)ss1", "System under test": "NCI-H23", "GI50": "> 100 µM (inactive)"}
{"Compound": "Cc1ccc(CNc2ccc(Br)cc2)cc1", "System under test": "NCI-H23", "GI50": "50.2 µM (inactive)"}
{"Compound": "CCOC(=O)C1C(c2ccccc2)C2(C#N)C(=N)OC1(C)C2(C#N)C#N (stereo not drawn)", "System under test": "NCI-H23", "GI50": "17.5 µM (inactive)"}
{"Compound": "CCC(C)C1NC(=O)C2CCCN2C(=O)C(CC(C)C)OC(=O)CCNC(=O)C(C)N(C)C(=O)C(C(C)C)N(C)C1=O (stereo not drawn) (cyclo([ξLac(3-iPr)]PI[NMeV][NMeA][βAla]); configuration not given here)", "System under test": "NCI-H23", "GI50": "9.84 µM (inactive)"}
